pIC50: −log10 of the molar value.
The compounds below have reported pIC50 for human A2a adenosine receptor (Homo sapiens (Human)).
ASSAY READOUT: pIC50

- COc1cc(F)cc2c1nc(N)n1nc(C3CC(F)CN(c4cnn(CC5(O)CCC5)c4)C3)nc21 (single isomer, unassigned) [Example 78]: 9.05

a = COc1cc2nc(N)n3nc(C4CCC(C)N(c5cnn(C(C)(C)CO)c5)C4)nc3c2cc1F (single isomer, unassigned)
b = COc1cc2nc(N)n3nc([C@@H]4CCCN(c5cnn(C(C)C(C)(C)O)c5)C4)nc3c2cc1F (single isomer, unassigned)
c = COc1cc(F)cc2c1nc(N)n1nc([C@@H]3CCCN(c4cnn(CC(C)(C)O)c4)C3)nc21
d = COc1cc2nc(N)n3nc(C4CCC(C)N(c5cn(CC(C)(C)O)nc5C)C4)nc3c2cc1F (centres unmarked) [Example 53]
e = COc1cc2nc(N)n3nc([C@H]4CC[C@@H](C)N(c5cn(CC6(O)CCC6)nc5C)C4)nc3c2cc1F (single isomer, unassigned)
IN: Write the entries in order, lowest recorded pIC50 first. Answer format: the labels, in the requested order.
OUT: d, e, c, b, a
(d: 7.36, e: 7.74, c: 8.55, b: 8.77, a: 9.52)

a = COc1cc(F)cc2c1nc(N)n1nc([C@@H]3CCCN(c4cnn(CC(C)(C)O)c4C)C3)nc21
b = COc1cc(F)cc2c1nc(N)n1nc([C@@H]3CCCN(c4ccc(OC(F)F)nc4)C3)nc21
c = CCn1cc([C@]2(O)CCC[C@@H](c3nc4c5cc(F)c(OC)cc5nc(N)n4n3)C2)cn1 (single isomer, unassigned)
d = COc1cc(F)cc2c1nc(N)n1nc([C@@H]3C[C@@H](F)CN(c4cnn(CC(C)(C)O)c4)C3)nc21 (single isomer, unassigned)
e = COc1cc(F)cc2c1nc(N)n1nc(C3CCC(C)N(c4cnn(CC(C)(C)O)c4)C3)nc21 (single isomer, unassigned) [Example 121]
IN: Write the entries in order, lowest recorded pIC50 first. Answer format: the labels, in the requested order.
OUT: c, e, b, a, d
(c: 6.41, e: 7.26, b: 8.44, a: 8.82, d: 9.05)

a = COc1cc2nc(N)n3nc([C@@H]4CCCN(c5cnn(CC(C)(C)O)c5)C4)nc3c2cc1F
b = COc1ccc(N2CCC[C@@H](c3nc4c5cc(F)cc(OC)c5nc(N)n4n3)C2)cn1
IN: Would you let me know which has the greater pIC50 value, a or b ? Selection: enter the item's label.
OUT: b
(b: 8.85, a: 8.43)

A = COc1cc2nc(N)n3nc(C4CCC(C)N(c5cn(CC(C)(C)O)nc5C)C4)nc3c2cc1F (single isomer, unassigned) [Example 42]
B = COc1cc(F)cc2c1nc(N)n1nc(C3CCC(C)N(c4cnn(C(C)(C)CO)c4)C3)nc21 (single isomer, unassigned)
C = COc1cc(F)cc2c1nc(N)n1nc(C3CC(F)CN(c4cn(CC(C)(C)O)nc4C)C3)nc21 (single isomer, unassigned)
IN: Write the entries in order, lowest recorded pIC50 first. Answer format: the labels, in the requested order.
OUT: C, A, B
(C: 6.59, A: 8.37, B: 9.52)

P = COc1cc2nc(N)n3nc([C@@H]4CCCN(c5cnn(CC6(O)CCC6)c5)C4)nc3c2cc1F
Q = COc1cc(F)cc2c1nc(N)n1nc(C3CC(F)CN(c4cnn(CC5(O)CCC5)c4)C3)nc21 (single isomer, unassigned) [Example 72]
R = COc1cc2nc(N)n3nc([C@@H]4CC[C@H](C)N(c5cnn(C6CCC(C)(O)CC6)c5)C4)nc3c2cc1F (single isomer, unassigned)
S = Cn1cc(N2CCC[C@@H](c3nc4c5cc(Cl)cc(Cl)c5nc(N)n4n3)C2)cn1
T = COc1cc2nc(N)n3nc([C@H]4CC[C@@H](C)N(c5cnn(CC6(O)CCC6)c5C)C4)nc3c2cc1F (single isomer, unassigned)
IN: Please give the order of these compounds when sorted by pIC50, largest value leading. Answer format: the labels, in the requested order.
OUT: R, Q, P, T, S
(R: 9.22, Q: 8.70, P: 8.46, T: 7.68, S: 7.24)

1 = COc1cc2nc(N)n3nc([C@@H]4CCCN(c5cnn(C6CCCC6O)c5)C4)nc3c2cc1F (single isomer, unassigned)
2 = COc1cc(F)cc2c1nc(N)n1nc(C3CCC(C)N(c4cnn(CC(C)(C)O)c4)C3)nc21 (single isomer, unassigned) [Example 118]
3 = COc1cc2nc(N)n3nc([C@@H]4CCCN(c5cnc(OC(F)F)c(C)c5)C4)nc3c2cc1F
IN: Please give the order of these compounds when sorted by pIC50, largest value leading. Answer format: the labels, in the requested order.
OUT: 2, 1, 3

A = COc1cc2nc(N)n3nc([C@@H]4CCCN(c5cnn(C)c5)C4)nc3c2cc1F
B = COc1cc2nc(N)n3nc(C4CCC(C)N(c5cnn(C6CCOCC6)c5)C4)nc3c2cc1F (single isomer, unassigned)
IN: Would you let me know which has the greater pIC50 value, A or B ? Selection: enter the item's label.
OUT: B
